List of IC50 values.
Molecular target: human B1 receptor (Homo sapiens, UniProt P46663)
Construct: host or cells: CHO-K1
Sequence (P46663 1-353): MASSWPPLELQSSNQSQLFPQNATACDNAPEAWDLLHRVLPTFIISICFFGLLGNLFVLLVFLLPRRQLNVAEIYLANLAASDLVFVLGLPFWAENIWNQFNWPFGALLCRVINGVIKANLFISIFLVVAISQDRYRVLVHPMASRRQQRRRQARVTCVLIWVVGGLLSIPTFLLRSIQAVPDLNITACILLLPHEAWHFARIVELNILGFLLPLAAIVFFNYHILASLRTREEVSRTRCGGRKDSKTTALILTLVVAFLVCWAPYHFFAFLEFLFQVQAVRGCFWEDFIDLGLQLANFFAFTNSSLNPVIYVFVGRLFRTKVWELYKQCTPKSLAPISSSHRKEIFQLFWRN
Experiment: Calcium flux assay (FLIPR) with recombinant CHO-K1 cells expressing human B1 receptor
Assay type: cell-based
Details: absence of 0.1% BSA in assay buffer, agonist Lys-(Des-Arg)-Bradykinin, read-out: hB1 free IC50
Respond with the figure and its unit, in that order.

// known answers, use as guide
>  <compound>
O=C(O)c1cc(NC(=O)C2CC2c2cccc(Cl)c2)ccc1-c1cnn(C2CCC2)c1 (single isomer, unassigned) [Example 11]

>  <target.desc>
human B1 receptor (Homo sapiens, UniProt P46663)

>  <readout.value>
32 nM

$$$$
>  <compound>
CC(F)(F)c1ccc(-c2ccc(NC(=O)C3CC3c3cccc(Cl)c3)cc2C(=O)O)cn1 (racemic)

>  <target.desc>
human B1 receptor (Homo sapiens, UniProt P46663)

>  <readout.value>
2470 nM

$$$$
>  <compound>
O=C(O)c1cc(NC(=O)C2CC2c2ccc(Cl)cc2)cc(F)c1-c1cnn(C2CCC2)c1 (racemic)

>  <target.desc>
human B1 receptor (Homo sapiens, UniProt P46663)

>  <readout.value>
22 nM

$$$$

Asked: Please indicate IC50 recorded for O=C(O)c1cc(NC(=O)C2CC2c2ccc(Cl)cc2)c(F)cc1-c1ccc(C(F)(F)F)nc1 (racemic)
Given back: 1260 nM
